TARGET OR TEST SYSTEM: anti-CLDN-5 ECR mAb clone 2B12
Sequence (chain, as listed by the source, chain 1 of 2): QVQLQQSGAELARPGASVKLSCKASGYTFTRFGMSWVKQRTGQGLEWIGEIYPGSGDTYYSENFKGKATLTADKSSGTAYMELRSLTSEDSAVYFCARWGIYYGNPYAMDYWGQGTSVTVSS
Sequence (chain, as listed by the source, chain 2 of 2): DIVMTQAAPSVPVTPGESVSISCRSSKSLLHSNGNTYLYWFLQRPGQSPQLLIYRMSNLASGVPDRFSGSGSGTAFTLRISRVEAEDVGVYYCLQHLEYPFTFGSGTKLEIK
TEST DESCRIPTION: proteoliposome ELISA
MEASUREMENT SETUP: chain shown with the change;; parent: est. 1.0; read off a plot
MEASURED ENDPOINT: ratio to parent
Give bare numbers.

{"columns": ["BINDER", "ratio to parent"],
 "data": [
  ["AGIA-tagged human CLDN-5, cell-free synthesized proteoliposome, O00501 E146A (protein) MGSAALEILGLVLCLVGWGGLILACGLPMWQVTAFLDHNIVTAQTTWKGLWMSCVVQSTGHMQCKVYDSVLALSTEVQAARALTVSAVLLAFVALFVTLAGAQCTTCVAPGPAKARVALTGGVLYLFCGLLALVPLCWFANIVVRAFYDPSVPVSQKYELGAALYIGWAATALLMVGGCLLCCGAWVCTGRPDLSFPVKYSAPRRPTATGDYDKKNYV", 0.36],
  ["AGIA-tagged human CLDN-5, cell-free synthesized proteoliposome, O00501 V152A (protein) MGSAALEILGLVLCLVGWGGLILACGLPMWQVTAFLDHNIVTAQTTWKGLWMSCVVQSTGHMQCKVYDSVLALSTEVQAARALTVSAVLLAFVALFVTLAGAQCTTCVAPGPAKARVALTGGVLYLFCGLLALVPLCWFANIVVREFYDPSAPVSQKYELGAALYIGWAATALLMVGGCLLCCGAWVCTGRPDLSFPVKYSAPRRPTATGDYDKKNYV", 0.39],
  ["AGIA-tagged human CLDN-5, cell-free synthesized proteoliposome, O00501 V154A (protein) MGSAALEILGLVLCLVGWGGLILACGLPMWQVTAFLDHNIVTAQTTWKGLWMSCVVQSTGHMQCKVYDSVLALSTEVQAARALTVSAVLLAFVALFVTLAGAQCTTCVAPGPAKARVALTGGVLYLFCGLLALVPLCWFANIVVREFYDPSVPASQKYELGAALYIGWAATALLMVGGCLLCCGAWVCTGRPDLSFPVKYSAPRRPTATGDYDKKNYV", 0.87]
]}

Q: Can you look up the measured ratio to parent of AGIA-tagged human CLDN-5, cell-free synthesized proteoliposome, O00501 P153A (protein) MGSAALEILGLVLCLVGWGGLILACGLPMWQVTAFLDHNIVTAQTTWKGLWMSCVVQSTGHMQCKVYDSVLALSTEVQAARALTVSAVLLAFVALFVTLAGAQCTTCVAPGPAKARVALTGGVLYLFCGLLALVPLCWFANIVVREFYDPSVAVSQKYELGAALYIGWAATALLMVGGCLLCCGAWVCTGRPDLSFPVKYSAPRRPTATGDYDKKNYV for me?
Result: 0.08
